Test system: Proteus mirabilis A9554
Assay: MIC, two-fold agar dilution method
Type: cell-based
Conditions: nutrient agar
Method: The minimum inhibitory concentrations (MIC) of the semibiosynthetic tallysomycin derivatives of the present invention were determined against fungi and gram-positive, gram-negative and acid-fast bacteria by the two-fold agar dilution method. Nutrient agar was used for bacteria and Sabouraud agar for fungi. The results are shown in the table below comparatively with tallysomycin A and B.
# if value of minimum inhibitory concentration (MIC) reaches 2, tag class 1; if it stays below, tag class 0

Look over these answered cases.
INSERT INTO measurements (compound, assigned_label) VALUES
  ('Cc1c(N)nc(C(CC(N)=O)NCC(N)C(N)=O)nc1C(=O)NC(C(=O)NC(C)C(O)CC(=O)NC(C(=O)NC(OC1OC(C)C(N)C(O)C1O)C(O)c1nc(-c2nc(C(=O)NCCCN(C)C)cs2)cs1)C(C)O)C(OC1OC(CO)C(O)C(O)C1OC1OC(CO)C(O)C(OC(N)=O)C1O)c1c[nH]cn1 (stereo not shown) [Tallysomycin S7b]', 'class 1'),
  ('Cc1c(N)nc(C(CC(N)=O)NCC(N)C(N)=O)nc1C(=O)NC(C(=O)NC(C)C(O)CC(=O)NC(C(=O)NC(OC1OC(C)C(N)C(O)C1O)C(O)c1nc(-c2nc(C(=O)NCC(O)CN)cs2)cs1)C(C)O)C(OC1OC(CO)C(O)C(O)C1OC1OC(CO)C(O)C(OC(N)=O)C1O)c1c[nH]cn1 (stereo not shown) [Tallysomycin S4b]', 'class 0'),
  ('Cc1c(N)nc(C(CC(N)=O)NCC(N)C(N)=O)nc1C(=O)NC(C(=O)NC(C)C(O)CC(=O)NC(C(=O)NC(OC1OC(C)C(N)C(O)C1O)C(O)c1nc(-c2nc(C(=O)NCCN)cs2)cs1)C(C)O)C(OC1OC(CO)C(O)C(O)C1OC1OC(CO)C(O)C(OC(N)=O)C1O)c1c[nH]cn1 (stereo not shown) [Tallysomycin S3b]', 'class 0'),
  ('Cc1c(N)nc(C(CC(N)=O)NCC(N)C(N)=O)nc1C(=O)NC(C(=O)NC(C)C(O)CC(=O)NC(C(=O)NC(OC1OC(C)C(N)C(O)C1O)C(O)c1nc(-c2nc(C(=O)NCCCN3CCOCC3)cs2)cs1)C(C)O)C(OC1OC(CO)C(O)C(O)C1OC1OC(CO)C(O)C(OC(N)=O)C1O)c1c[nH]cn1 (stereo not shown) [Tallysomycin S12b]', 'class 1'),
  ('Cc1c(N)nc(C(CC(N)=O)NCC(N)C(N)=O)nc1C(=O)NC(C(=O)NC(C)C(O)CC(=O)NC(C(=O)NC(OC1OC(C)C(N)C(O)C1O)C(O)c1nc(-c2nc(C(=O)NCCCN(CCO)CCO)cs2)cs1)C(C)O)C(OC1OC(CO)C(O)C(O)C1OC1OC(CO)C(O)C(OC(N)=O)C1O)c1c[nH]cn1 (stereo not shown) [Tallysomycin S8b]', 'class 0'),
  ('Cc1c(N)nc(C(CC(N)=O)NCC(N)C(N)=O)nc1C(=O)NC(C(=O)NC(C)C(O)CC(=O)NC(C(=O)NC(OC1OC(C)C(N)C(O)C1O)C(O)c1nc(-c2nc(C(=O)NCCCC(N)CC(=O)NCCCNCCO)cs2)cs1)C(C)O)C(OC1OC(CO)C(O)C(O)C1OC1OC(CO)C(O)C(OC(N)=O)C1O)c1c[nH]cn1 (stereo not shown) [Tallysomycin S6a]', 'class 0');

Task: Determine whether measured minimum inhibitory concentration (MIC) meets or exceeds 2 for Cc1c(N)nc(C(CC(N)=O)NCC(N)C(N)=O)nc1C(=O)NC(C(=O)NC(C)C(O)CC(=O)NC(C(=O)NC(OC1OC(C)C(N)C(O)C1O)C(O)c1nc(-c2nc(C(=O)NCCCC(N)CC(=O)NCCCN)cs2)cs1)C(C)O)C(OC1OC(CO)C(O)C(O)C1OC1OC(CO)C(O)C(OC(N)=O)C1O)c1c[nH]cn1 (stereo not shown) [Tallysomycin S1a]
Output: class 0

Task: // repeat for Cc1c(N)nc(C(CC(N)=O)NCC(N)C(N)=O)nc1C(=O)NC(C(=O)NC(C)C(O)CC(=O)NC(C(=O)NC(OC1OC(C)C(N)C(O)C1O)C(O)c1nc(-c2nc(C(=O)NCCNCC(C)O)cs2)cs1)C(C)O)C(OC1OC(CO)C(O)C(O)C1OC1OC(CO)C(O)C(OC(N)=O)C1O)c1c[nH]cn1 (stereo not shown) [Tallysomycin S5b] and report
Output: class 1

Task: // repeat for Cc1c(N)nc(C(CC(N)=O)NCC(N)C(N)=O)nc1C(=O)NC(C(=O)NC(C)C(O)CC(=O)NC(C(=O)NC(OC1OC(C)C(N)C(O)C1O)C(O)c1nc(-c2nc(C(=O)NCCCN)cs2)cs1)C(C)O)C(OC1OC(CO)C(O)C(O)C1OC1OC(CO)C(O)C(OC(N)=O)C1O)c1c[nH]cn1 (stereo not shown) [Tallysomycin S1b] and report
Output: class 0

Task: // repeat for Cc1c(N)nc([C@H](CC(N)=O)NC[C@H](N)C(N)=O)nc1C(=O)N[C@H](C(=O)N[C@H](C)[C@@H](O)CC(=O)N[C@H](C(=O)NC(O[C@@H]1O[C@@H](C)[C@@H](N)[C@@H](O)[C@H]1O)C(O)c1nc(-c2nc(C(=O)NCCCC(N)CC(=O)NCCCNCCCCN)cs2)cs1)[C@@H](C)O)[C@H](O[C@@H]1O[C@@H](CO)[C@@H](O)[C@H](O)[C@@H]1O[C@H]1O[C@H](CO)[C@@H](O)[C@H](OC(N)=O)[C@@H]1O)c1c[nH]cn1 (stereo partly shown) [Tallysomycin A, reference compound] and report
Output: class 0

These data points were gathered from patent US4314028A.
